# method.summary: soluble on expression in E. coli; label from the status in PepcDB or PDB records
experimental.readout: soluble on expression in E. coli

| seq.text | result |
| --- | --- |
| MSFSRRPKVTKSDIVDQIALNIKNNNLKLEKKYIRLVIDAFFEELKSNLCSNNVIEFRSFGTFEVRKRKGRLNARNPQTGEYVKVLDHHVAYFRPGKDLKERVWGIKG | soluble |
| TEELHKIEDIIRIFNDCFSQEYNTRLAKGGDYPIYLPAYRAENNTPSDRPYHVILFAHGYYSSALHEIAHWLVAGTARRQLEDFGYWYEPDGRSAEQQREFETVEVKPQAIEWILATAADFRYFASADNLSGNAGDNSAFKQAVYQQVKIYANRGYLPKRAEKLRQALAKFYGTTDQINLANFEIT | not soluble |
| MGSDKIHHHHHHMTTNNASPEAGHIMQTRTVDLDGQVLRVGIRPGSGDLPPLLMFNGIGANLELVEPFVDALPDVEVIIFDIPGAGGSPAPLFPYRFSNLCVMADKLLSHLGYAGPVDTLGVSWGGALAQEFARLYPQRCRRLVLAATSPGVLMVPGSPSVLTKMIGIRRYTDAEYLRRVGGDIYGGAFRDDPSLLDVHGGHMRPPRGRGYLYQLLAAWGWSSLPWLRALKQRTLVLHGSDDPIVPLINAKILSGCIPDSALHVFHDDGHLFLLTAARESARVVGEFLREGR | not soluble |
| MNNETSGKETASAPLCSPKLPVEKVQRIAKNDPEYMDTSDDAFVATAFATEFFVQVLTHESLHRQQQQQQQQVPPLPDELTLSYDDISAAIVHSSDGHLQFLNDVIPTTKNLRLLVEENRVRYTTSVMPPNEVYSAYVVNDTAPKPNIVEIDLDNDEDDDEDVTDQE | not soluble |
| MSLADEMGYVPDRRAQKLRQASSRLLGVVFELQQPFHGDLVEQIYAAATRRGYDVMLSAVAPSRAEKVAVQALMRERCEAAILLGTRFDTDELGALADRVPALVVARASGLPGVGAVRGDDVAGITLAVDHLTELGHRNIAHIDGADAPGGADRRAGFLAAMDRHGLSASATVVTGGTTETEGAEGMHTLLEMPTPPTAVVAFNDRCATGVLDLLVRSGRDVPADISVVGYDDSRLARIPHVQMTTISQDATHMAEAAVDGALAQISGDKAVDLVLAPHLVRRATTGPVAHREGHHHHHH | soluble |
| MSTFSLLRLPQKTLKNVILQMGHIELICTSLLSNKTKHFIREFCIFKASRFSIELNQSVQFKMFNNGRWSEYSFKNGMICITSFGIIQITMTFRTPQFNAGSWFNHFLCVLSPSKIESVTVTDAFDELRFQLVKKFLEKIQFMVLWIRTTSATSHMVRLFSEVLPVDQFWLSQDDRLNSSQFSALRPVLSKELETIFIDNRMPLNDLLITCSTAIHIIKSPLTDKEINVFLKHWMTGLKPELEHIYIEKSGVFNQTQLLDGINHDAPTDRKFKMYGNDAFRGIDLHLGQGIKATLVYENDFFHSKIHIASHNSKYISFE | not soluble |
| MVLYFIGLGLYDERDITVKGLEIAKKCDYVFAEFYTSLMAGTTLGRIQKLIGKEIRVLSREDVELNFENIVLPLAKENDVAFLTPGDPLVATTHAELRIRAKRAGVESYVIHAPSIYSAVGITGLHIYKFGKSATVAYPEGNWFPTSYYDVIKENAERGLHTLLFLDIKAEKRMYMTANEAMELLLKVEDMKKGGVFTDDTLVVVLARAGSLNPTIRAGYVKDLIREDFGDPPHILIVPGKLHIVEAEYLVEIAGAPMEILRVNV | soluble |

====

# method.summary: soluble on expression in E. coli; label from the status in PepcDB or PDB records

| seq.text | soluble on expression in E. coli |
| --- | --- |
| MSLINPIDPAARRPQTTVQPSTPPQAKPKPLAATQVLPAQSVLNLAQSELGTDMQELGSIFPVEESCAETLENMSFALGTQARERMRGLSSSADRARPRSMMQRLAKQVSATAPDHLEELRQRVPGIEAVEEVDDLLNSLRQHQFDAGEMALLLAAMLGKDGLSPTRRRRLEEALDRVMDDEDWALQLFSHLEFGAVGKSGLAELRRLYQRAASRQSGLVYWFGQFRQMDDRQRKLKTLIRALAFELSAQGGATDIRLAAVITDLKRVLQFLGMEDHCDRVAKALAIPELDGNRIIEELLEIIQQSWVYPDWLSSRADALMPEEHSRHGYARRMGELVKLLPDDCFEDIDQRETILAAFLEYQEQLADEEEGHHHHHH | soluble |
| MSLSKLGIIGLGKVGTQVLTDVQQLNLFSEIILIDDRADVASGEALDHIHSQGLINTAHIKIRSGVYQDLTDADFIVIAASEATDKNNGDRTLLAQGNHDIIKGIMSQIAEVTQEAVVILISNPVDSMVYFANQIDYPAHKIIGTGTALETSRFKTIIADHYQIDPNNVEAFVIGEHGQHAIPVWSKVHIHGMELSEFEALSDRPAIDKSHISSIINEVSMDVFYQKGWTNAAISKVTSFLIQSIALDQRTITPLTSLSSEYGLEDGAFSLPTLIDKKGIVQRFAITLDKEEERELKEAYEYIRQTIHTAQEGHHHHHH | soluble |

====

# method.summary: soluble on expression in E. coli; label from the status in PepcDB or PDB records

| seq.text | soluble on expression in E. coli |
| --- | --- |
| MSLKNTLILGIESSCDETAASVVKNGNEIISSVVASQIESHKRFGGVVPEIASRHHVEQITLVIEEALKQANVTMDDLDGVAVTEGPGLVGALLIGVNAAKTLAFMHNLPLVGVHHIAGHIYANRFETEFKFPLLSLVVSGGHTELVLMKADNEFEIIGETRDDAAGEAYDKVARTLGLAYPGGVQIDKLAKDGEDTFHFPRAMMDEGSFDFSFSGLKSSFINTLHNLRQRGEEPNPNDMAASFQASVVDVLVSKTIRAAKQYDVKQLLLAGGVAANQGLRERLIQEVKLELPETELIIPPLALCGDNAAMIAAAGTVSFLQGKRSGFDMNANPGLLLEDIEGHHHHHH | soluble |
| MDDVLRRNPLFAALDDEQSAELRASMSEVTLARGDTLFHEGDPGDRLYVVTEGKVKLHRTSPDGRENMLAVVGPSELIGELSLFDPGPRTATGTALTEVKLLALGHGDLQPWLNVRPEVATALLRAVARRLRKTNDAMSDLVFSD | soluble |

====

# method.summary: soluble on expression in E. coli; label from the status in PepcDB or PDB records

| seq.text | soluble on expression in E. coli |
| --- | --- |
| MSLHVKVIVFGGSGFLGSHLVNRLDADEMVYFSLEKGNSVTRKDAKWVSGDVTDYSKVAEAMKDVDVAIFAVEDWNADEKRNREILLDGIKNVVNAVKANNTEQKVVSFSIINHPSYPLEFFRTKRLVEDNTRVLKNGLVVRLSFLFGEGDHFTDRFRKLSERVGHLSPEGNLAPVYVDDVVKVVNSILKREGVYDICSNDNLPLIKIVNYIRKMNGKKEIGETKLEKAISAVVETGLFAEYEAHLLFQDYYRETNILDRYVKDPLSYLDFLRGISVTHTTEGHHHHHH | soluble |
| MAIGFICSSPDAELFSEKSRMSSSVLLGCLLCCMDWSAAVPGKTEPFRKLFDAIMIKKLKSCSAAYPSDLDEGSMCDMADASPTSLELGLSKLDKES | not soluble |
| MGSDKIHHHHHHMHSDEEIFKETTPKALLQLLKKDYYFHDYCYQEIIPRGKEIKMNNSKGFQIYLVESGYFSYCLQNEYGDSGIISFVGGEIAINLIPIIKEEPEESVLRSLTEVHCWVLDPDFVERVLDESGQKAKYLLSNLLYTRKVYFKASKRNFMKKELRIRACLKELGLYMGRVTKEKEFILPDEINNSILAQYANTTREYTNIIVLKLRKEGILDDSHKPWVIKKIDIL | not soluble |
| MSLDSRPKLPQTLSRGWGDQLIWTQTYEEALYKSKTSNKPLMIIHHLDECPHSQALKKVFAENKEIQKLAEQFVLLNLVYETTDKHLSPDGQYVPRIMFVDPSLTVRADITGRYSNRLYAYEPADTALLLDNMKKALKLLKTELEGHHHHHH | soluble |

====

# method.summary: soluble on expression in E. coli; label from the status in PepcDB or PDB records
experimental.readout: soluble on expression in E. coli

| seq.text | experimental.readout | result |
| --- | --- | --- |
| MIVVVNEQQVEVDEQTTIAALLDSLGFGDRGIAVALNFSVLPRSDWATKICELRKPVRLEVVTAVQGG | soluble on expression in E. coli | soluble |
| MQVSDLFIREMPSDCLPRERLLAIGEKALSNQELLAILLRTGSKEADVMTVAATLLKQFKQLSYLQQATLNELMAIKGIGQVKAIELRAAIELGCRIYQSSQIKFGKVTSSQQVAQRLLQEMKGLQQEHLICIYLNTKNDIIQQKTIFKGSLNQSIAHPREIFREAVKYSSARILLAHNHPSGNPTPSPQDIQFTKRMEECGEMMGIQLLDHIILGDSGYISLREENFFASE | soluble on expression in E. coli | not soluble |
| MDDYVPIPFTLLKLPQKSIDVVLRRMCIEALVELSFTSKAAMQQTKHLGIKTERFIIAINSNEILIDVSGCRDFRFYTFECSTPSHHTVQKPIRVHVGFRGERWETPFFGVRQFLNHLMEIFHQTKLDSLHISTADPECSNELKGMEFGWLSMMSMTSDNNSSQDEDALRQFSGKTDSICLNRNPFSIEPSKQMQMILTRNMNVVSTKCDLNDVFVTNARSFTAFLKIEDVNIFLKHWMHRSDRKLKSAWFDLDAFRWDVEDVLEPLFKGIAYHVAPADREFIVHLPKKLSGCGDYRVIGGYDVRRNDGMTATIIVADRANVFLKMFFWI | soluble on expression in E. coli | not soluble |
| AHHHHHHASAKWVCKICGYIYDEDAGDPDNGISPGTKFEELPDDWVCPICGAPKSEFEKLEDGSGTREIIIDCYLHDMCEGLNIMTVRGSAYLLVGQNVYPLIEGIVPPTLHFYIKEGYLDIYGFWRVEGEEHAAHIRVAIDKVHVVGTSIIVEPHGALENFDASVVIKLDASEKDLEQLKKIINEEKFWTKEEHGEVISTYLEKHLREKRKKKE | soluble on expression in E. coli | soluble |
| MGSDKIHHHHHHMDKLMKICPTREIELQQKAKQLYEEEENRKIAYNAGLVEAEGYCQYTRLKEIIEFAKKCGYKKIGIAFCIGLKREMQTVQKIFEHHGFEVFSVICKNGAMPKSTIGLEASQTISKCSDEVMCNPIGQALFLNEAKVDLNVILGLCVGHDTLAMKYMEAPITTLVVKDRVTGHNPVAAIYNAESYFEKKLFDKDEE | soluble on expression in E. coli | not soluble |
| MGSDKIHHHHHHMSNGGRLVSQLEAEGSTHLTLPIHKKSLSSLWQIRPLRQLIEEHQPDIVHVRSRVPAWLTHFALRKIPANKRPHLISTVHGFYSVNRYSAIMTQAEKVIAVSDSVVKYITDHYKNCPPQDIVRIYRGIDPAAFPHNYQPSAQWFNQVFNDFPELENKFLLCLPGRITRLKGHESLIELMQQLHSQYPQLHAVIVGGADVKKQAYLSELQNTIQSKGLADKITFVGHRSDIREWLAFSDIVLSLSNQAETFGRTALEALSVGTPVIGWNRGGVAEILSHVYPQGLVEAENEKALLETVKHHIEQPQTVAPVTMFSLKDMCDQTLELYQSVLN | soluble on expression in E. coli | not soluble |
